MEASUREMENT_DESCRIPTION: self-splicing fitness, log relative to wild type (ln ratio); higher = more splicing; Tetrahymena group I intron in knt gene, E. coli kanamycin selection, DiMSum; sequences stand for … in CUCUCU…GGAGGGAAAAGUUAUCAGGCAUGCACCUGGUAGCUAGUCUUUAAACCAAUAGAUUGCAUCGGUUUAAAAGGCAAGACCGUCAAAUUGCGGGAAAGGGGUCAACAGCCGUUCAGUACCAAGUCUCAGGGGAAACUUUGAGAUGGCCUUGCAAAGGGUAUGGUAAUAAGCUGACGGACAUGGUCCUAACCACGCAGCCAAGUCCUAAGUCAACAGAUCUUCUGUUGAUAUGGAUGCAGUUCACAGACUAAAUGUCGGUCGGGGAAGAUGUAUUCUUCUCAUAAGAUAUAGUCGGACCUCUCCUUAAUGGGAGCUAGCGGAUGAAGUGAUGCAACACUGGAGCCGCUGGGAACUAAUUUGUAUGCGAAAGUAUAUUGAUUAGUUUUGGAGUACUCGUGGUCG;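 also: selection with 25 µg/mL kanamycin versus none on LB agar overnight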
STUDY_CONDITIONS: 30 °C
// label = Met if self-splicing fitness (ln) is not less than -3, otherwise Not met

SEQUENCE_STRING	ASSIGNED_CATEGORY
CGGUAGCAAUAUUACGAAGU	Met
ACAUAGCAAUAUUACGGGAU	Met
AAAGAGCAAUAUUACGGCGU	Met
GCGCAGCAAUAUUACGUUCC	Met
GUUCAGCAAUAUUACGUCUA	Met
AGCUAGCAAUAUUACGCCUA	Met
AGGGAGCAAUAUUACGUUCA	Met
GAUAAGCAAUAUUACGGUUU	Met
CAGUAGCAAUAUUACGUGUG	Met
GAUAAGCAAUAUUACGGCGG	Met
AUAAAGCAAUAUUACGUGUC	Not met
GUUCAGCAAUAUUACGAAUU	Met
GCCCAGCAAUAUUACGUAUA	Met
CGCCAGCAAUAUUACGGGUU	Met
CGUAAGCAAUAUUACGAGAG	Not met
AGACAGCAAUAUUACGGCCU	Met
GUGGAGCAAUAUUACGGUAU	Met
GAUCAGCAAUAUUACGUGCA	Met
GGCAAGCAAUAUUACGGCGG	Met
CAGCAGCAAUAUUACGUAAU	Met
AACCAGCAAUAUUACGCAAG	Met
UCCCAGCAAUAUUACGGCAC	Not met
GAGGAGCAAUAUUACGUCCG	Met
AGAAAGCAAUAUUACGUUAA	Met
GCUCAGCAAUAUUACGUCGA	Not met
AGCGAGCAAUAUUACGGCAU	Met
AUUCAGCAAUAUUACGUAGU	Met
ACGAAGCAAUAUUACGGCUU	Not met
GUCAAGCAAUAUUACGAAGU	Met
CAUUAGCAAUAUUACGUGCG	Met
UUAUAGCAAUAUUACGAAUG	Met
CCCAAGCAAUAUUACGAUCA	Not met
ACUCAGCAAUAUUACGCCCA	Met
UUGUAGCAAUAUUACGCACG	Met
GCUUAGCAAUAUUACGACUC	Met
AAGCAGCAAUAUUACGACUG	Met
UUUCAGCAAUAUUACGUUCG	Met
UUUAAGCAAUAUUACGCGCG	Met
CGUUAGCAAUAUUACGCAAA	Met
AAAAAGCAAUAUUACGACGC	Met
CAGUAGCAAUAUUACGCAGU	Not met
UGACAGCAAUAUUACGCCCU	Met
UGCGAGCAAUAUUACGUGCA	Met
